assay: Growth inhibition of human HUVEC cells assessed as reduction in cell number after 48 hrs by alamarBlue based fluorescence assay
MEASURE: log10 GI50 at 48 h (log10 of the value in µM)

[[record]]
molecule = "COc1cc(/C=C2\\COc3cc(OC)c(OC)c(OC)c3C2=O)ccc1OCc1ccccc1"
numeric_readout = 1.72

[[record]]
molecule = "COc1ccc(CC2COc3cc(OC)c(OC)c(OC)c3C2=O)cc1O (stereo not drawn)"
numeric_readout = 1.08

[[record]]
molecule = "COc1ccc(CC2COc3cc(OC)c(OC)c(OC)c3C2=O)cc1OC(=O)[C@H](Cc1ccccc1)NC(=O)OC(C)(C)C (stereo partly drawn)"
numeric_readout = -0.12

[[record]]
molecule = "COc1cc(OC)c2c(c1)OCC(Cc1ccc(OC)c(O)c1)C2=O (stereo not drawn)"
numeric_readout = 0.40

[[record]]
molecule = "COc1ccc(/C=C2\\COc3cc(OC)c(OC)c(OC)c3C2=O)cc1[N+](=O)[O-]"
numeric_readout = 1.18

[[record]]
molecule = "COc1ccc(CC2COc3cc(OC)c(OC)c(OC)c3C2=O)cc1NC(=O)[C@H](Cc1ccccc1)NC(=O)OC(C)(C)C (stereo partly drawn)"
numeric_readout = 0.93

[[record]]
molecule = "COc1cc(/C=C2\\COc3cc(OC)c(OC)c(OC)c3C2=O)ccc1O"
numeric_readout = 0.79

[[record]]
molecule = "COC(=O)c1cc(/C=C2\\COc3cc(OC)c(OC)c(OC)c3C2=O)ccc1OC"
numeric_readout = 0.51

[[record]]
molecule = "COC(=O)c1cc(CC2COc3cc(OC)c(OC)c(OC)c3C2=O)ccc1OC (stereo not drawn)"
numeric_readout = 1.23

[[record]]
molecule = "COc1cc(OC)c2c(c1)OC/C(=C\\c1ccc(OC)c(O)c1)C2=O"
numeric_readout = 1.18

[[record]]
molecule = "C=CCOc1ccc(C[C@H](NC(=O)OC(C)(C)C)C(=O)Oc2cc(CC3COc4cc(OC)c(OC)c(OC)c4C3=O)ccc2OC)cc1 (stereo partly drawn)"
numeric_readout = -1.04

[[record]]
molecule = "COc1cc2c(c(OC)c1OC)C(=O)/C(=C/c1ccc(OCc3ccccc3)c(OCc3ccccc3)c1)CO2"
numeric_readout = 1.63

